TARGET_ENTITY: Glucose-dependent insulinotropic receptor (Homo sapiens)
METHOD: Agonist activity at human GPR119 expressed in HEK293 cells assessed as cAMP accumulation after 60 mins relative to OEA
Assay type: functional, cell-based
just bin them by Emax: bottom range = under 20%, center range = from 20% up to 30%, top range = 30% and over

Would you mind sorting COc1cc2nc(OC3CCN(C(=O)OC(C)(C)C)CC3)nc(Nc3ccc(S(C)(=O)=O)cc3)c2cc1OC into the appropriate category?
bottom range

// return the class label for COc1cc2nc(N3CCC4CCC(C3)N4C(=O)OC(C)(C)C)nc(Nc3ccc(S(C)(=O)=O)cc3)c2cc1OC (racemic)
top range

Class for COc1cc2nc(N3CCC4CCC(C3)N4Cc3ccccc3)nc(Nc3ccc(S(C)(=O)=O)cc3F)c2cc1OC (racemic) ?
top range

Could you place COc1cc2nc(NC3CC4CCC(C3)N4C(=O)OC(C)(C)C)nc(Nc3ccc(S(C)(=O)=O)cc3F)c2cc1OC (stereo not drawn) in its proper category? Many thanks.
top range

Bin this entry: COc1cc2nc(Nc3ccc(S(C)(=O)=O)cc3F)nc(OCC3CCN(C(=O)OC(C)(C)C)CC3)c2cc1OC
center range

Pick a category. Item: COc1cc2nc(Nc3ccc(S(C)(=O)=O)cc3)nc(OCC3CCN(C(=O)OC(C)(C)C)CC3)c2cc1OC
bottom range

Consider the additional compound presented here.
Could you tell me which band COc1cc2nc(N3CCC4CCC(C3)N4Cc3ccccc3)nc(Nc3ccc(S(C)(=O)=O)cc3)c2cc1OC (racemic) belongs to?
center range

---

TARGET_ENTITY: Glucose-dependent insulinotropic receptor (Homo sapiens, UniProt Q8TDV5)
Sequence (Q8TDV5 whole entry): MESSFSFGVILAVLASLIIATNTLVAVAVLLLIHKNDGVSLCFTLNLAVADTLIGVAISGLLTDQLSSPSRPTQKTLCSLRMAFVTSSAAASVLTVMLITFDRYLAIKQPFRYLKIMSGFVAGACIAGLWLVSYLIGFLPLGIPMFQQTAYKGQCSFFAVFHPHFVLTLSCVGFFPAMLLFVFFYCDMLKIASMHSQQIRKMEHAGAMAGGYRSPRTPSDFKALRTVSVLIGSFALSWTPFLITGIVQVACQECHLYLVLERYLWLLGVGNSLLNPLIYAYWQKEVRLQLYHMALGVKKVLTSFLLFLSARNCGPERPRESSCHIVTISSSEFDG
METHOD: Agonist activity at human GPR119 expressed in HEK293 cells assessed as cAMP accumulation after 60 mins
pEC50: −log10 of the molar value.
READOUT_LABEL: pEC50

// fetch pEC50 given entry COc1cc2nc(OC3CCN(C(=O)OC(C)(C)C)CC3)nc(Nc3ccc(S(C)(=O)=O)cc3)c2cc1OC
< 5.00

Find the measured pEC50 of COc1cc2nc(Nc3ccc(S(C)(=O)=O)cc3F)nc(OCC3CCN(C(=O)OC(C)(C)C)CC3)c2cc1OC and report it.
< 5.00

Note down pEC50 recorded for COc1cc2nc(NCC3CC4CCC(C3)N4C(=O)OC(C)(C)C)nc(Nc3ccc(S(C)(=O)=O)cc3F)c2cc1OC (stereo unspecified)
6.00

For every listed record, write down its pEC50.
1. COc1cc2nc(N3CCC4CCC(C3)N4C(=O)OC(C)(C)C)nc(Nc3ccc(S(C)(=O)=O)cc3)c2cc1OC (racemic)
2. COc1cc2nc(Nc3ccc(S(C)(=O)=O)cc3F)nc(OC3CCN(C(=O)OC(C)(C)C)CC3)c2cc1OC
3. COc1cc2nc(OC3CCN(C(=O)OC(C)(C)C)CC3)nc(Nc3ccc(S(C)(=O)=O)cc3F)c2cc1OC
4. COc1cc2nc(NCC3CC4CCC(C3)N4C(=O)OC(C)(C)C)nc(Nc3ccc(S(C)(=O)=O)cc3)c2cc1OC (stereo unspecified)
5. COc1cc2nc(Nc3ccc(S(C)(=O)=O)cc3)nc(NC3CC4CCC(C3)N4C(=O)OC(C)(C)C)c2cc1OC (stereo unspecified)
6. COc1cc2nc(N3CCC4CCC(C3)N4C(=O)OC(C)(C)C)nc(Nc3ccc(S(C)(=O)=O)cc3F)c2cc1OC (racemic)
7. COc1cc2nc(Nc3ccc(S(C)(=O)=O)cc3)nc(N3CCC4CCC(C3)N4Cc3ccccc3)c2cc1OC (racemic)
8. COc1cc2nc(N3CCC4CCC(C3)N4Cc3ccccc3)nc(Nc3ccc(S(C)(=O)=O)cc3F)c2cc1OC (racemic)

1. < 5.00
2. < 5.00
3. < 5.00
4. < 5.00
5. < 5.00
6. 6.00
7. < 5.00
8. < 5.00

Hi team, please reply with pEC50 for each item in this list.
1. COc1cc2nc(Nc3ccc(S(C)(=O)=O)cc3)nc(OCC3CCN(C(=O)OC(C)(C)C)CC3)c2cc1OC
2. COc1cc2nc(NC3CC4CCC(C3)N4C(=O)OC(C)(C)C)nc(Nc3ccc(S(C)(=O)=O)cc3F)c2cc1OC (stereo unspecified)
3. COc1cc2nc(Nc3ccc(S(C)(=O)=O)cc3)nc(OC3CCN(C(=O)OC(C)(C)C)CC3)c2cc1OC
4. COc1cc2nc(N3CCC4CCC(C3)N4Cc3ccccc3)nc(Nc3ccc(S(C)(=O)=O)cc3)c2cc1OC (racemic)
5. CCCCCCCC/C=C\CCCCCCCC(=O)NCCO [OLEOYLETHANOLAMIDE]

< 5.00
6.00
< 5.00
< 5.00
5.66

---

TARGET_ENTITY: Glucose-dependent insulinotropic receptor (Homo sapiens) (UniProt Q8TDV5)
METHOD: Agonist activity at human GPR119 expressed in HEK293 cells assessed as cAMP accumulation after 60 mins relative to OEA
Format: functional, cell-based
Decide using Emax: a value greater than or equal to 20% is Yes, a smaller one is No.

Consider the following illustrative entries.
Record COc1cc2nc(Nc3ccc(S(C)(=O)=O)cc3)nc(N3CCC4CCC(C3)N4Cc3ccccc3)c2cc1OC (racemic) ; criterion: Emax no lower than 20%. Met?
Yes

Could you verify whether the entry COc1cc2nc(Nc3ccc(S(C)(=O)=O)cc3)nc(NC3CC4CCC(C3)N4C(=O)OC(C)(C)C)c2cc1OC (stereo unspecified) shows Emax of no less than 20%?
No

Check if Emax >= 20% (inclusive). Item: COc1cc2nc(OCC3CCN(C(=O)OC(C)(C)C)CC3)nc(Nc3ccc(S(C)(=O)=O)cc3F)c2cc1OC
Yes

Moving on to the next molecule.
Is reported Emax greater than or equal to 20% here: COc1cc2nc(NCC3CC4CCC(C3)N4C(=O)OC(C)(C)C)nc(Nc3ccc(S(C)(=O)=O)cc3F)c2cc1OC (stereo unspecified)
Yes

---

TARGET_ENTITY: Glucose-dependent insulinotropic receptor (Homo sapiens) (UniProt Q8TDV5)
METHOD: Agonist activity at human GPR119 expressed in HEK293 cells assessed as cAMP accumulation after 60 mins relative to OEA
Assay type: functional, cell-based
Hi there, I'd appreciate the recorded Emax for every entry that follows.
One number for each entry, in %.

Consider the following illustrative entries.
Tell us which Emax value is on record for COc1cc2nc(OC3CCN(C(=O)OC(C)(C)C)CC3)nc(Nc3ccc(S(C)(=O)=O)cc3F)c2cc1OC
19.6

// Input: COc1cc2nc(NCC3CC4CCC(C3)N4C(=O)OC(C)(C)C)nc(Nc3ccc(S(C)(=O)=O)cc3)c2cc1OC (configuration not stated) . Output its Emax only.
19.9

Give the measured Emax for COc1cc2nc(Nc3ccc(S(C)(=O)=O)cc3F)nc(OC3CCN(C(=O)OC(C)(C)C)CC3)c2cc1OC
19.7

// Input: COc1cc2nc(Nc3ccc(S(C)(=O)=O)cc3)nc(NCC3CC4CCC(C3)N4C(=O)OC(C)(C)C)c2cc1OC (configuration not stated) . Output its Emax only.
15.1

Look up and report measured Emax for this entry: COc1cc2nc(Nc3ccc(S(C)(=O)=O)cc3)nc(N3CCC4CCC(C3)N4C(=O)OC(C)(C)C)c2cc1OC (racemic)
37.5

Take each entry in turn and give its Emax.
1. COc1cc2nc(N3CCC4CCC(C3)N4C(=O)OC(C)(C)C)nc(Nc3ccc(S(C)(=O)=O)cc3F)c2cc1OC (racemic)
2. COc1cc2nc(Nc3ccc(S(C)(=O)=O)cc3)nc(OC3CCN(C(=O)OC(C)(C)C)CC3)c2cc1OC

[56.9, 20.6]
